System: Rattus norvegicus
Test: Cmax in Sprague-Dawley rat 5 mg/kg, po
Assay type: ADME, organism-based
Design: dose 5 mg/kg, route oral
Details: in vivo
EXPERIMENTAL_ENDPOINT: Cmax (ng/mL)
Please state the figure in ng/mL; there is no need to write the unit.

The measured Cmax associated with COc1cc2c(cc1Nc1ncc(Cl)c(Nc3ccc(N4CCOCC4)cc3OC)n1)CCN(CC(=O)N(C)C)CC2 reads 306

---

Assay: AUC (0 to t) in CD-1 mouse 10 mg/kg, po
Type: ADME, organism-based
Set-up: dose 10 mg/kg, route oral
Conditions: plasma
EXPERIMENTAL_ENDPOINT: AUC(0-t) (ng·h/mL)
Your answer is read as ng·h/mL, so omit the unit and give the number.

# compound COc1cc2c(cc1Nc1ncc(Cl)c(Nc3ccc(N4CCOCC4)cc3OC)n1)CCN(CC(=O)N(C)C)CC2 ; its AUC(0-t) = 3900

---

Assay: Clearance in Sprague-Dawley rat 1 mg/kg, iv
Type: ADME, organism-based
Set-up: dose 1 mg/kg, route intravenous
Conditions: in vivo
EXPERIMENTAL_ENDPOINT: clearance (mL/min/kg)
Report only the number, with the unit mL/min/kg understood.

For reference, reported clearance for COc1cc2c(cc1Nc1ncc(Cl)c(Nc3ccc(N4CCOCC4)cc3OC)n1)CCN(CC(=O)N(C)C)CC2 stands at 16

---

Test: Half life in CD-1 mouse 10 mg/kg, po
Assay type: ADME, organism-based
Parameters: dose 10 mg/kg, route oral
Conditions: in vivo
EXPERIMENTAL_ENDPOINT: half-life (h)
Unit h implied. Number only.

According to the records, this molecule COc1cc2c(cc1Nc1ncc(Cl)c(Nc3ccc(N4CCOCC4)cc3OC)n1)CCN(CC(=O)N(C)C)CC2 displays half-life of 3.1

---

Assay: Volume of distribution in CD-1 mouse 1 mg/kg, iv
Type: ADME, organism-based
Design: dose 1 mg/kg, route intravenous
Details: in vivo
EXPERIMENTAL_ENDPOINT: Vd (L/kg)
# number only, unit L/kg dropped from output

Record COc1cc2c(cc1Nc1ncc(Cl)c(Nc3ccc(N4CCOCC4)cc3OC)n1)CCN(CC(=O)N(C)C)CC2 , field Vd: 1.2

---

Experiment: Oral bioavailability in Sprague-Dawley rat 5 mg/kg
Format: ADME, organism-based
Conditions: in vivo
EXPERIMENTAL_ENDPOINT: bioavailability (%)
State the answer as a number, implicitly in %.

// sample COc1cc2c(cc1Nc1ncc(Cl)c(Nc3ccc(N4CCOCC4)cc3OC)n1)CCN(CC(=O)N(C)C)CC2 , its bioavailability was 30
